B1: CPEB3 Ribozyme (parent)
chain: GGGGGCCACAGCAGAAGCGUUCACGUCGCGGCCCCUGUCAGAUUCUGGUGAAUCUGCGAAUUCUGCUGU

- Variants of: B1
- experiment: self-cleavage, relative activity (ratio to wild type); higher = more cleavage; co-transcriptional
endpointLabel: self-cleavage
Form field (numeric): enter value without unit.

Illustrative cases are given below, each with its answer.
[
  {
    "variant": "A51U G68C",
    "self-cleavage": 1
  },
  {
    "variant": "G41C U44A",
    "self-cleavage": 0.377
  },
  {
    "variant": "A23U U44G",
    "self-cleavage": 0.882
  },
  {
    "variant": "C6G U49C",
    "self-cleavage": 0.417
  },
  {
    "variant": "U49A G68C",
    "self-cleavage": 0.994
  },
  {
    "variant": "C7G C57G",
    "self-cleavage": 0.189
  },
  {
    "variant": "U43G G58U",
    "self-cleavage": 0.946
  },
  {
    "variant": "G17A C24G",
    "self-cleavage": 0.116
  },
  {
    "variant": "C57U U67G",
    "self-cleavage": 0.509
  },
  {
    "variant": "U46G G68C",
    "self-cleavage": 1.04
  }
]

Next:
[ask] For the variant shown here, G3U U36G , give the reported self-cleavage.
[reply] 0.135
